Data provenance is the Human Domainome abundance scans (Beltran et al. 2025).

B1: SH3 and PX domain-containing protein 2B, residues 155 to 209; numbered along this chain, A1X283 (parent)
chain: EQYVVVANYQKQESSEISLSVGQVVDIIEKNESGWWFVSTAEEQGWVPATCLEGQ

# Variants of: B1
# assay: abundance fitness (aPCA) (normalised: wild type 0, dead -1); higher = more abundant; growth selection in yeast, the domain comes from the species named
# test-parameters: Homo sapiens
Binary call on abundance fitness: Fulfilled from -0.1 upward, Not fulfilled beneath that.

- E32S: Fulfilled
- P48R: Not fulfilled
- A7S: Fulfilled
- S33P: Not fulfilled
- G34R: Not fulfilled
- I17T: Not fulfilled
- V5H: Not fulfilled
- L52Y: Not fulfilled
- V24Q: Not fulfilled
- E29Q: Fulfilled

Now consider the entry below.
# input Kindly determine if abundance fitness recorded for W35F is above or exactly -0.1.
# output Fulfilled
